- Experiment summary: chemical genetic growth profiling, strain panel (AID 1159580);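 further: tested at 20 µM; growth read once vehicle control cultures reached saturation at 30 °C; 1 = growth at the plate median or of vehicle wells; lower values mean less growth of the strain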
- Test parameters: S. cerevisiae deletion strains, growth OD, locus YJL128C, strain PBS2, stronger effect = lower value
Hit rate of the full screen: of about 5,500 compounds, about 2,000 (36%) were called active. Not shown: some 18% with an inconclusive outcome. The list shows a part of the results.
Property: normalized growth; scope: individual compounds
Measurement type: normalized growth

[[record]]
chemical_smiles = "CC(=O)/C(C#N)=N\\Nc1ccc(F)cc1"
observed_value = 0.316

[[record]]
chemical_smiles = "Fc1cc(I)ccc1Nc1ccnc2cc(Cl)ccc12"
observed_value = 0.978

[[record]]
chemical_smiles = "CCOC(=O)c1ccc2nc(N=CNO)sc2c1"
observed_value = 0.94

[[record]]
chemical_smiles = "Cc1cccc(NC(=S)N/N=C\\c2ccc(F)cc2)c1"
observed_value = 0.98

[[record]]
chemical_smiles = "C/C(Cc1nnn(-c2cc(C)on2)n1)=N/OC(=O)Nc1ccc(Cl)cc1"
observed_value = 0.921

[[record]]
chemical_smiles = "COc1cc(Cl)ccc1N/N=C(/C#N)C(N)=O"
observed_value = 0.103

[[record]]
chemical_smiles = "N#C/C(=N/Nc1ccc(F)cc1)C(=O)c1ccccc1"
observed_value = 0.942

[[record]]
chemical_smiles = "O=C(Oc1cccc2[nH]ccc12)c1ccc(C(F)(F)F)cc1"
observed_value = 0.933

[[record]]
chemical_smiles = "N/C(Cn1ccc(C(F)(F)F)n1)=N/OS(=O)(=O)c1cccc(Cl)c1Cl"
observed_value = 0.988

[[record]]
chemical_smiles = "CC1(C)CC(=O)C=C(Sc2nc3ccccc3o2)C1"
observed_value = 0.924

[[record]]
chemical_smiles = "O=C(c1csc(-c2ccc(Cl)cc2)c1)N1CCCCC1"
observed_value = 0.878

[[record]]
chemical_smiles = "Cc1cc(C)cc(Sc2ccc3nnc(-c4ccccc4)n3n2)c1"
observed_value = 0.933

